List of pEC50 values.
- Test system: Human immunodeficiency virus 1
- Test method notes: Antiviral activity against HIV1 LAV1 infected in PHA-stimulated human PBMC assessed as reduction in RT activity after 6 days by micromethod-based beta scintillation counting
- Format: functional, organism-based
- Run conditions: Human immunodeficiency virus 1, LAV1, 144 h
// scale note: pEC50 = -log10(conc_M); give the bare number

INSERT INTO results (molecule, experimental_endpoint, result) VALUES
  ('CCc1cn([C@H]2O[C@H](CO)[C@@H](O)[C@@]2(C)F)c2ncnc(N)c12', 'pEC50', 4.02),
  ('C[C@@]1(F)[C@H](O)[C@@H](CO)O[C@@H]1n1cc(C#Cc2ccccc2)c2c(N)ncnc21', 'pEC50', 5.11),
  ('C#Cc1cn([C@H]2O[C@H](CO)[C@@H](O)[C@@]2(C)F)c2nc(N)nc(N)c12', 'pEC50', 5.15),
  ('CCOC(=O)[C@H](C)NP(=O)(OC[C@H]1O[C@@H](n2ccc3c(N)nc(N)nc32)[C@](C)(F)[C@@H]1O)Oc1ccccc1 (some centres not stated)', 'pEC50', 4.06);

Looking up C[C@@]1(O)[C@H](O)[C@@H](CO)O[C@H]1n1ccc(N)nc1=O , I see its pEC50 listed as 4.32

====

- System: CCRF-CEM
- Test method notes: Cytotoxicity against human CEM cells after 6 days by trypan blue exclusion method
- Assay type: cell-based
- Run conditions: 144 h
Experimental endpoint: pIC50
// scale note: pIC50 = -log10(conc_M); give the bare number

INSERT INTO measurements (structure, study_target, result) VALUES
  ('C=Cc1cn([C@H]2O[C@H](CO)[C@@H](O)[C@@]2(C)F)c2ncnc(N)c12', 'CCRF-CEM', 4.80);

API: the following record is the query input.
Looking up C[C@@]1(F)[C@H](O)[C@@H](CO)O[C@@H]1n1cc(Cl)c2c(N)ncnc21 , I see its pIC50 listed as 4.02

====

List of IC50 values.
- Tested on: PBMC
- Test method notes: Cytotoxicity against human PBMC after 6 days by trypan blue exclusion method
- Format: cell-based
- Run conditions: 144 h

# IC50 measured on PBMC for item C=Cc1cn([C@H]2O[C@H](CO)[C@@H](O)[C@@]2(C)F)c2ncnc(N)c12 = 21 µM

# IC50 measured on PBMC for item C[C@@]1(F)[C@H](O)[C@@H](CO)O[C@@H]1n1ccc2c(N)nc(N)nc21 = > 100 µM

# IC50 measured on PBMC for item C[C@@]1(F)[C@H](O)[C@@H](CO)O[C@H]1n1ccc2c(N)nc(N)nc21 = > 100 µM

# IC50 measured on PBMC for item C[C@@]1(F)[C@H](O)[C@@H](CO)O[C@H]1n1cc(Br)c2c(N)ncnc21 = 74.2 µM

# IC50 measured on PBMC for item COC(=O)/C=C/c1cn([C@@H]2O[C@H](CO)[C@@H](O)[C@@]2(C)F)c2ncnc(N)c12 = > 100 µM

# IC50 measured on PBMC for item COC(=O)/C=C/c1cn([C@H]2O[C@H](CO)[C@@H](O)[C@@]2(C)F)c2ncnc(N)c12 = > 100 µM

# IC50 measured on PBMC for item CCc1cn([C@@H]2O[C@H](CO)[C@@H](O)[C@@]2(C)F)c2ncnc(N)c12 = 20.7 µM
